- TESTED_TARGET: human CD33 S248A (human, UniProt P20138 18-364)
- Sequence (P20138 18-364 S248A limits assumed): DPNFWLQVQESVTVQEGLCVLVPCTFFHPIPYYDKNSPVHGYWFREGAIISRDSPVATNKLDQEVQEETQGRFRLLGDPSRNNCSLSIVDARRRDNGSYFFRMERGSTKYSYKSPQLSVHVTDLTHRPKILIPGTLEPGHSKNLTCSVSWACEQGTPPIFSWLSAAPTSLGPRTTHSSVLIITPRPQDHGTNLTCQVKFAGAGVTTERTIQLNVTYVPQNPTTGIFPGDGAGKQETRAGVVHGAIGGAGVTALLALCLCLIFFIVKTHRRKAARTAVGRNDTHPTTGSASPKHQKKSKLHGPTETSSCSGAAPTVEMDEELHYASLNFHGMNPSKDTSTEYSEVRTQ
- PROTOCOL: alanine scan, flow cytometry, HEK293-T;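 also: antibody binding to each alanine-substituted CD33 mutant expressed transiently in HEK293-T, read as fluorescence minus background, mean of duplicates, relative to wild-type CD33 set as 100%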
OBSERVED_PROPERTY: Mean % WT Binding (% WT binding)
Numbers only; they are read as % WT binding.

# BINDER, OBSERVED_PROPERTY, READING_UNIT, OBSERVED_MEASUREMENT
rows = [
    ("Refmab #2 (antibody, V domains shown, The alanine scan used IgG or Fab) VH: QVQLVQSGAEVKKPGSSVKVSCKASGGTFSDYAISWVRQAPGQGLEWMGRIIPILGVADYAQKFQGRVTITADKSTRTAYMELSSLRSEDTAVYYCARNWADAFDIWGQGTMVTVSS VL: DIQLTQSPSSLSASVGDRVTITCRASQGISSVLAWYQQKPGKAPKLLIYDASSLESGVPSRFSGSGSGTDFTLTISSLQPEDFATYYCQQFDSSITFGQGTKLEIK", "Mean % WT Binding", "% WT binding", 93.6),
    ("Refmab #4 (antibody, V domains shown, The alanine scan used IgG or Fab) VH: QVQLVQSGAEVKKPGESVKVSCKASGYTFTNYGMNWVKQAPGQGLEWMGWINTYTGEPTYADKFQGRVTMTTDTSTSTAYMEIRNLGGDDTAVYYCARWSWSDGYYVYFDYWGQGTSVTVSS VL: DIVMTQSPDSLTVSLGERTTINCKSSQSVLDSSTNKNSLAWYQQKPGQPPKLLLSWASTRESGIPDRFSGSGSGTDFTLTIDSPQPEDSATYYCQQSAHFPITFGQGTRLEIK", "Mean % WT Binding", "% WT binding", 99.7),
]

Please examine the following record next.
Prompt: // returns reported Mean % WT Binding for input Refmab #1 (antibody, V domains shown, The alanine scan used IgG or Fab; also called hP67.6) VH: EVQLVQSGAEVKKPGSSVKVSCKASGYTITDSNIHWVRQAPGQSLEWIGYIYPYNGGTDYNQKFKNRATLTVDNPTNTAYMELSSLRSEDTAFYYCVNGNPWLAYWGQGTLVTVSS VL: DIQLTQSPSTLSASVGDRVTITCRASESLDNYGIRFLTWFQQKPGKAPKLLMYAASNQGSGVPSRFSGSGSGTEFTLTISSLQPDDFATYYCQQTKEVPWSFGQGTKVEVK
Completion: 88.4
